- measured-target: UniProtKB Q8N884
- Sequence (Q8N884 whole entry): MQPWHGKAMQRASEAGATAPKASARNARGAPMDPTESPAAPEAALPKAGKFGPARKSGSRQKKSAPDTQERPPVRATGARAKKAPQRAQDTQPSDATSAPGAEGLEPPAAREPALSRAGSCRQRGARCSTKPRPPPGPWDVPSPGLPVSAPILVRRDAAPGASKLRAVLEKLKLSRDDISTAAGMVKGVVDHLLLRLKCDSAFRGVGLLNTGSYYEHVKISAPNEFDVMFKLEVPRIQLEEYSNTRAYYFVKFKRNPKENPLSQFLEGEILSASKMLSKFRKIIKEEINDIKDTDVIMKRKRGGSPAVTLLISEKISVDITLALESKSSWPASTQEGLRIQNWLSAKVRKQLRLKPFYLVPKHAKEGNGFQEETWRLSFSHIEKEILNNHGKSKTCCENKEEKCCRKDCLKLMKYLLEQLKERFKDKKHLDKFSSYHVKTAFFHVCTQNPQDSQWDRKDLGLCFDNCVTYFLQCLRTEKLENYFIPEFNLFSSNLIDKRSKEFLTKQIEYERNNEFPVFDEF
- procedure-details: hcGAS Kinase-Glo assay
- Format: biochemical
- experimental-context: read-out: hcGAS activity
pIC50: −log10 of the molar value.
// values below are reported pIC50

1) CC1c2c([nH]c3c(Cl)c(Cl)ccc23)CCN1C(=O)c1ncc(N2CCOCC2)cn1 (racemic)	> 7.00
2) CC1c2c([nH]c3c(Cl)c(Cl)ccc23)CCN1C(=O)c1nccc(OCCO)n1 (racemic)	> 7.00
3) NNC(=O)N1CCc2[nH]c3c(Cl)c(Cl)ccc3c2C1	6.30 to 7.00
4) COCCOCn1c2c(c3ccc(Cl)c(Cl)c31)CN(C(=O)c1ncc(OC)cn1)CC2	5.30 to 6.00
5) Cn1cnc(C(=O)N2CCc3[nH]c4c(Cl)c(Cl)ccc4c3C2)n1	5.30 to 6.00
6) NCC(=O)N1C2COCC1c1c([nH]c3c(Cl)c(Cl)ccc13)C2 (stereo not shown)	6.30 to 7.00

Kindly consider the entry below.
# input Kindly indicate its recorded pIC50. Item: Nc1ccnc(C(=O)N2CCc3[nH]c4c(Cl)c(Cl)ccc4c3C2)n1
# output 5.30 to 6.00
